Target: T1, CD3ε homodimer protein (human, UniProt P07766 23-126, limits assumed, sulfo-tag or biotin label in some ECL assays)
T1 construct: also called human CD3ε homodimer protein; CD3 (CD3ε)
T1 sequence (P07766 23-126 limits assumed): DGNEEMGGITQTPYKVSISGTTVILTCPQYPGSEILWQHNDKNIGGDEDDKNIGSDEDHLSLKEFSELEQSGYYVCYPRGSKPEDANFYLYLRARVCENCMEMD
Assay: SPR, CD3ε homodimer on chip;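 also: biacore SPR with antibody variants flowed as analyte over amine-coupled CD3ε homodimer on a CM chip, bound amount of each single-residue H chain variant over that of parent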
Record form. Attribute: ratio of amounts bound vs CE115HA000. Fill in for each entry.
The reply should be a number, written without any unit.

Input: Value lookup for ratio of amounts bound vs CE115HA000; key = CE115HA000 N54K (antibody, name in Kabat numbering, V domains shown) VH: QVQLVESGGGVVQPGRSLRLSCAASGFTFSNAWMHWVRQAPGKGLEWVAQIKAKSNKYATYYAESVKGRFTISRDDSKNSLYLQMNSLKTEDTAVYYCRYVHYGAYYGVDAWGQGTTVTVSS VL: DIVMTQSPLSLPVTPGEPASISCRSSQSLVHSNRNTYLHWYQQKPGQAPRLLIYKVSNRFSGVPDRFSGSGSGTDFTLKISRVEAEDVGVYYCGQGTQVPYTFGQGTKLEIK
Output: 1.2

Input: Please report the recorded ratio of amounts bound vs CE115HA000 for CE115HA000 D73E (antibody, name in Kabat numbering, V domains shown) VH: QVQLVESGGGVVQPGRSLRLSCAASGFTFSNAWMHWVRQAPGKGLEWVAQIKAKSNNYATYYAESVKGRFTISRDESKNSLYLQMNSLKTEDTAVYYCRYVHYGAYYGVDAWGQGTTVTVSS VL: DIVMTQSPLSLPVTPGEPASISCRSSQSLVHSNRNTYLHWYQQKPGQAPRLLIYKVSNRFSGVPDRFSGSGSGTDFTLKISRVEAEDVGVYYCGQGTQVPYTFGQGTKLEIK .
Output: 0.73

Input: Which ratio of amounts bound vs CE115HA000 is listed for CE115HA000 A56N (antibody, name in Kabat numbering, V domains shown) VH: QVQLVESGGGVVQPGRSLRLSCAASGFTFSNAWMHWVRQAPGKGLEWVAQIKAKSNNYNTYYAESVKGRFTISRDDSKNSLYLQMNSLKTEDTAVYYCRYVHYGAYYGVDAWGQGTTVTVSS VL: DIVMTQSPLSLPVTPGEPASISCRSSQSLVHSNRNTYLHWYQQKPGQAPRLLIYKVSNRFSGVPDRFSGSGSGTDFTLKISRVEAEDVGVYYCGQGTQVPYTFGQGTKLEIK ?
Output: 0.87

Reference for the values: patent US20220040297A1
